Assay: yeast display, Sf9 membrane polyspecificity reagent, FACS + sequencing; frameworks hold sequencing errors
parameter: polyreactivity (PSR sort gate)

construct_sequence	parameter	measured
QVQLVESGGGLVQAGGSLRLSCAASGSIFPVNVMGWYRQEPGKERELVARITSGGSTIYADSVKGRFTISRDNAKNTVYLQMNSLKPEDTAVYYCAARQYHWYLPSYWYRYDYWGQGTQVTVSS	polyreactivity (PSR sort gate)	high polyreactivity
QVQLVESGGGLVQAGGSLRLSCAASGRIFNSYGMGWYRHAPGKEREFVAAISRSGGITYYADSVKGRFTISRDNAKNTVYLQMNSLKPEDSAVYYCAADYYWRRQRQVGYWGQGTQVTVSS	polyreactivity (PSR sort gate)	high polyreactivity

###

Assay: yeast display, Sf9 membrane polyspecificity reagent, FACS + sequencing; frameworks hold sequencing errors
parameter: polyreactivity (PSR sort gate)

construct_sequence	parameter	measured
QVQLVESGGGLVQAGGSLRLSCAASGSTFSHNAMGWSIQAPWKERELLASISSGANTYYADSVKGRFTISRDNAKNTVYLHMNSLKPEVTAVYYCAAGAHAYDHYSWFYFRMHYWGQGTQVTVSS	polyreactivity (PSR sort gate)	low polyreactivity
QVQLVESGGGLVQAGGSLRLSCAASGSIFAPYAMGWYRQAPGKERELVAAIRWSGGRTYYADSVKGRFTISRDNAKNTVYLQMNSLKPEDTAVYYCNAVIHRLGKTYGTNRVDYWGQGTQVTVSS	polyreactivity (PSR sort gate)	high polyreactivity
QVQLVESGGGLVQAGGSLRLSCPASGFYAMGWYRQAPGKERELVAAIRGSGSSTYYADSVKGRFTISRDNAKNTVYLQMNSLKPEDTAVYYCAKQGYLVWSGWRWYDYWGQGTQVTVSS	polyreactivity (PSR sort gate)	low polyreactivity
QVQLVESGGGLVQAGGSLRLSCAASGSIFLFYALGWSRQAPGKERELVATINWSGCTTYYADSVKGRFTISRDNAKNTVYFQMNSLKPEDNAFYYCAAYSVYGRYGRTFYYWGQGTQVTVSS	polyreactivity (PSR sort gate)	high polyreactivity
QVQLVESGGGLVQAGGSLRLSCAASGSIFISNAMGWYRQAPGKERELVAAISRSGARTYYADSVKGRFTISRDNAKNTVYLQMNSLKPEDTAVYYCAVDGYSPYKYDYWGQGTQVTVSS	polyreactivity (PSR sort gate)	high polyreactivity

###

Assay: yeast display, Sf9 membrane polyspecificity reagent, FACS + sequencing; frameworks hold sequencing errors
parameter: polyreactivity (PSR sort gate)

construct_sequence	measured
QVQLVESGGGLVQAGGSLRLSCAASGFTFTGNAMGWYRQAPGKERELVAAISRSGGSTFYADSVKGRFTISRDNAKNTVYLQMNSLKPEDTAVYYCAARRRTLNYLYDYWGQGTQVTVSS	high polyreactivity
QVQLVESGGGLVQAGGSLRLSCAASGYIFRYYAMGWYRQAPGKERELVAVISSTGTSTYYADSVKGRFTISRDNAKNTVYLQMNSLKPEDTAVYYCAVKGYFSYWRYQSDYWGQGTQVTVSS	high polyreactivity
QDQLVESAGGLVQAGGSLRLSCAASGSISYNNVMGWYRQAPGKERELVARIRSGGSTYYADSVKGRFTISRDNAKNTVYLQMNSLKPEDTAVYYCAARTKRQAGSYGYWGQGTQVTVSS	high polyreactivity
QVHLVESGGGLVQAGGSLRLICAASGFTFDFYAMGWYRQAPGKERELVAAISKNDGTTYYADSVKGRFTISRDNAKNTVYLQMYSLKPEDTAVYYCAAESGYPVYTYVSSGDYWGQGTQVTVSS	low polyreactivity
QVQLVESGGGLVQAGGSLRLSCAASGFTFASYVMGWYRQAPGKERELVASISWSGGRTYYADSVKGRFTISRDNAKNTVYLQMNSLKPEDTAVYYCNVLVTRYSPWFLYNYWGLGTQVTVSS	high polyreactivity
QVEHVESGGGLVQAGGILRLSCAASGSTFYGYAMGWYRQARGKERELVAAITSSGGSTYYADSVKGRFTISRDNAKNSVYLQMNSLKPEDTADYYCNAKRAPWGTLYNYWGQGSQVTVSS	high polyreactivity
QVQHVESGGGLVQAGGSLRLSCAASGSTFYGNTMGCYRQAPGKERELVAAISIRGTRTYYADSVKGRFTISRDNAKNTVYLQMNSLKPEDTAVYYCNAVTFPHNYDYWGQGTQVTVSS	high polyreactivity
QVQLVESGEGLVQAGGSLRLSCAASGIFPYNAMGWYRQAPGKEREFVAGISRRGGSTYYADSVKGRFTISRDNAKNTVYLQMNSLKPEDTAVYYCAAGTYHKVVRRWASYYYWGQGTQVTVSS	high polyreactivity
QVQLVESGGGLVQAGGSLRLSCAASGRIFRIYTMVWYRQAPGKERELVAVINSSGGRTYYADSVKGRFTISRDNAQNTVYLQMNSLKPEDTAVYYCNAVFGGGTMDYWGQGTQVTVSS	high polyreactivity
QVQLVESGGGLVQAGGSLRLSCAASGNTFSPYAMGWYRQAPGKERELVAAITFRGGSTYYADSVKGRFTISRDNAKNTVYLQMNSLKPEDTAVYYCNAERGGWSGYFGYDYWGQGTQVTVSS	low polyreactivity
QVHLQESGAGLEQAGGSLRLSCAASGYISDIGTMGCYRQAPGKEREFVATIVVGSTTNYADSVKGRFTISRDNAKNTLYLQPESGRYRGVLLRGWLLAVGKFTYWGQGTQETVSS	low polyreactivity

###

Experiment: yeast display, Sf9 membrane polyspecificity reagent, FACS + sequencing; frameworks hold sequencing errors
parameter: polyreactivity (PSR sort gate)

construct_sequence	measured
QVQLVESGGGLVQAGGSLRLSCAASGSTFWFYAMGWYRQAPGKERELVAVISNSGSTYYADSVKGRFTISRDNAKNTVYLQMNSLKPEDTAVYYCNKDGGGDSYWYDYWGQATQVTVSS	low polyreactivity
QVQLVESGGGLVQAGGSLRLSCAASGFTLGVYTMGGSRQAPGKVRELVARITSGGRTYSADSVKGRFTISRDNAKNSVYLQMNSLQPEDTAVYYCAKVDGRRTYYTVHRYERDYWGQGTQVTVSS	low polyreactivity
QVQLVESGGGLVQAGGSLRLSCAASGSTFSTNAMGWYSPAPGKERELVAASTVSGGRTYYADSVKGRFTISRDNAKNTVYLQMNSLKPEDTAVYYCATDTSRLSIFGYVSFYYWGQGTQVNVSS	low polyreactivity
QVQLVESGGVLVQAGGSLRLSCAASGSISYSYAMGWYRQAPGKERELVAAITWGGDSTYYADSVKGRFTISRDNAKNTVYLQMNSLKPEDTAVYYCAADLRFTYPVYRAGGGYDYWGQGTQVTVSS	low polyreactivity
QVQLVESGGGLVQAGGSLRLSCAASGSTFLTNAMGWYRQAPGKERELVAAIRWRGGDTRYADSVKGRFTISRDNAKNTVYLQMNSLKPEDTAVYYCAAQYRKTQYQKKYDYWGQGTQVTVSS	high polyreactivity
QVQLVESGGRLVQAGGSLRLSCAPSGNTFALNAMGWYRQAPGKERELVAAISRRGASTYYADSVKRRFTISRDYAKNTVYIQMNSLKPEDNALDYCAADSGPRVGFFYWGQGTQVTVSS	high polyreactivity
QVQLVESGGGLVQAGGSLRLSCAASGRIFDLYAMGWYRQAPGKERELVAAITWRGGSTYYADSVKGRFTISRDNAKNTVYLQMNSLKPEDTAVYYCAARSYYISPWRFDYWGQGTQVTVSS	high polyreactivity
QVQLVESGGGLVQAGGSLRLSCAASGRIFIPYAMGWYRLAPGKERELVAAISSSAGSSYYADSVKGRFTISRDTAKNTVYLQMKSLKPEDTAVYYCAARLYWWYAFETYSSLFEYDYWGQGTQVTVSS	low polyreactivity
QVQLVESGGGLVQAGGSLRLSCAASGRIYTHYAMGWYRQAPGKERELVAAISYRGGSTYYADSVKGRFTISRDNAKNTVYLQMNRLKPEATAVYYCNKYRFVYSLDDYWGQGIQVTVSS	high polyreactivity
QVQLVESGGGLVQAGGSLRLSCAASGSTFERYAMGWYRPAPGKERELVAAISAIGDSTYYADSVKGRFTISRDNAKNTVYLQMNSLKPEDTAVYYCAARYTRYHIGRGYYYWGQGTQVTVSS	high polyreactivity
QVQLVESGGGLVQAGGSLRLSCAASGSTFTTYGMGWYRQAPGKERELVAGITFRGGSTYYADSVKGRFTISRDNAKNTVYLQMNSLKPEDTAVYYCAAERWRWYYSWTMDYWGQGTQVTVSS	high polyreactivity
QVQLVESGGGLVQAGGSLRLSCAASGRIFVGYAMGWYRQAPGKERELVAAISSDGGSTYYADSVKGRFTISRDNAKNTVYLQMNSLKPEDSAVYYCNAYYGRFPYYADDYWGQGTQVTVSS	low polyreactivity
QVQLVESGGGLVQAGGSLRLSCAASGRIFIDYAMGWYRPAPGKERELVATITSSGGSTYYADSVKGRFTISRDNAKNTVYLQMNRLKPEDTAVYYCNKEGSYDYDYWGQGTQVTVSS	low polyreactivity
QVQLVESGGGLVQAGGSLRLSCDASGGTFYRNAMGWYRQAHGKERELVAVISKRGTSTYYADSVKGRFTISRDNAKNTVYLQMNSLKPEDTAVYYCATVYYHLSPNRPYGYWGQGTQVTLSS	high polyreactivity
QVQLVESGGGLVQARGSLRLSCAASGFTFSRYAMGWYRQAPGKERELVAAITRSGGSTYYADSVKGRFTISRDNAKNTVYLQMNSLKPEDTAVYYCAKRAASGFRWDSGYWGQGTQVTVSS	high polyreactivity
QVQLVESGGGLDHAGGPLRLSCAASGTIFAYYNMGWYRQPPGKERELVAGISKRGGNTYYADSVKGRFTISRDNAKNTVYLQMNSLKPEDTAVYYCNKRYSANTRGYYYWGQGTQVTVSS	high polyreactivity
QLQLVETGGGLVQAGASLRLSCAASGSIFVPYAMGWYIQAPGKERELVAAISRGGDTNYADSVKGRFTISRDNAKNTVYLQMISLKPEDTAVYYCNRARHLYSRWHGGYYYWGQGTQVNVSS	low polyreactivity
QVQLVESGGGLVQAGGSLRLSCAASGHIFTRNAMGWYRQAPGKERELVAAISRTGGSTYYADSVKGRFTISRDNAKNSVYLQMNSLKPEDTAVYYCAKRRQASEDYWGQGTQVTVSS	high polyreactivity
QVQLVESGGGLVQAGGSLRLSCAASGRIVTDSAMGWYSQAPGKDREFVAAIRRSGGSTYYAGCVKGRCTISRDTANNTVYLQMNSLKPEDTAVYYCAARGATSYYIFHSWGQGTQVTVSS	high polyreactivity
QVQLVESGGGLVQAGGSLRLSCAASGITFKYNAMGWYRPAPGKERELVAAISSGGNTYYADSVKGRFTISRDNAKNTVYLQMNSLKPEDTAVYYCAAPSYDTLWHDYWGQGTQVTVSS	low polyreactivity
QVQLVESGGGLVQAGGSLRLSCAASGSIFDTYAMGWYRQAPGKERELVAAIRQSGARTYYADSVKGRFTISRDKAKNTVYLQMNSLKPEDTAVYYCAVSYHHYQTWYNYWGQGTQVTVSS	high polyreactivity
